system: VEGF; test: Evaluation of VEGF protein secretion level (Human VEGF ELISA) in ARPE-19 cell medium under hypoxic conditions; format: cell-based; details: ARPE-19 cells; pretreated 2 hours, 24 hours hypoxic conditions; secreted VEGF in medium supernatant by ELISA; concentration range reducing VEGF by 50% vs untreated control; read-out: IC50 VEGF
Item-by-item account of IC50

Example cases with answers are listed next.
compound: O=C(NCc1cc(-c2cnn(-c3ccc(F)cc3)c2)ccc1F)c1ncnc2nc(C3CCCC3)[nH]c12
val: 100 to 1000 nM
//
compound: O=C(NCc1cc(F)cc(-c2cnn(-c3ccc(F)cc3)c2)c1)c1ncnc2nc(C3CCC(F)C3)[nH]c12 (single isomer, unassigned) [110(B)]
val: 100 to 1000 nM
//
compound: CN(Cc1cc(F)cc(-c2cnn(-c3ccc(F)cc3)c2)c1)C(=O)c1ncnc2nc(C3CCCC3)[nH]c12
val: > 10000 nM
//
compound: O=C(NCc1cc(F)cc(-c2ccn(-c3ccc(F)cc3)n2)c1)c1ncnc2nc(C3CCCC3)[nH]c12
val: 100 to 1000 nM
//
compound: O=C(NCc1cccc(-c2cnn(-c3ccc(F)cc3)c2)c1F)c1ncnc2nc(C3CCCC3)[nH]c12
val: 100 to 1000 nM
//
compound: O=C(NCc1cc(F)cc(N2CCCN(c3ccc(F)cc3)CC2)c1)c1ncnc2nc(C3CCCC3)[nH]c12
val: > 10000 nM
//
compound: Cn1cc(-c2cc(F)cc(CNC(=O)c3ncnc4nc(C5CC6C(C5)C6(F)F)[nH]c34)c2)cn1 (stereo not shown)
val: 1000 to 10000 nM
//
compound: CN1CCC[C@H]1c1nc2ncnc(C(=O)NCc3cc(F)cc(-c4cnn(C)c4)c3)c2[nH]1
val: 1000 to 10000 nM
//
compound: O=C(O)c1ccc(Nc2cc(F)cc(CNC(=O)c3ncnc4nc(C5CCCC5)[nH]c34)c2)cc1
val: > 10000 nM
//
compound: O=C(NCc1cc(F)cc(-c2cn(-c3ccc(F)cc3)nn2)c1)c1ncnc2nc(C3CCCC3)[nH]c12
val: > 10000 nM

Shifting focus to the compound that follows.
Qu. Could you tell me which IC50 is on file for O=C(NCc1cc(F)cc(Nc2ccccc2)c1)c1ncnc2nc(C3CCCC3)[nH]c12 ?
Ans. 100 to 1000 nM

---

target: HIF-1α (Homo sapiens, UniProt Q16665); construct: endogenous in cells; host or cells: ARPE-19 (ATCC CRL-2302); test: Analysis of HIF-1α protein expression (Western blot) in ARPE-19 cells under mixed hypoxic condition; assay type: cell-based; conditions: values marked * in the table, mixed hypoxic condition (1% oxygen + CoCl2) for 24 hours, concentration range at which HIF-1α expression is reduced by 50% vs untreated control, read-out: IC50 HIF-1α, Hypoxia(24h)
Sequence (Q16665 whole entry): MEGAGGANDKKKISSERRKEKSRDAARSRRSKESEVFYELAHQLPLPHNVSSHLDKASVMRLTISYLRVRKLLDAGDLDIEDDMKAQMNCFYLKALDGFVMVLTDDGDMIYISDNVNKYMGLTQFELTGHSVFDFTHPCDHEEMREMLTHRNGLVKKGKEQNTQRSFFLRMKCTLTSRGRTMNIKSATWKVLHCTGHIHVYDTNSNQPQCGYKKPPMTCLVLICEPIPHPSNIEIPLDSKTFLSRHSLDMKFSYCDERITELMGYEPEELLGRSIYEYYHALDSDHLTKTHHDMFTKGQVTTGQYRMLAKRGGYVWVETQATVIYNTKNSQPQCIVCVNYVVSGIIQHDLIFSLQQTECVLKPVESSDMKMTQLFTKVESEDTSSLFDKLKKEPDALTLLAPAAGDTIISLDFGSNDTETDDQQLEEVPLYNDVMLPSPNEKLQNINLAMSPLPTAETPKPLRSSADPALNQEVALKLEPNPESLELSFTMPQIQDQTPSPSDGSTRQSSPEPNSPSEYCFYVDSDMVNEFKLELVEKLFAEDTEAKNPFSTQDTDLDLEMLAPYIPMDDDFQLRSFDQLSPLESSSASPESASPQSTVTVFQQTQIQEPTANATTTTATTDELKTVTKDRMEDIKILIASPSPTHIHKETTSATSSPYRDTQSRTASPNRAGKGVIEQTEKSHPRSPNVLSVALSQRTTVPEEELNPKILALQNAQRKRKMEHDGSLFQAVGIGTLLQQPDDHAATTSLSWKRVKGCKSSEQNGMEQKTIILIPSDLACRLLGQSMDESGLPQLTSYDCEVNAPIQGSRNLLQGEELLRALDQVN
measured-endpoint: DC50

Reference set, count: 10
molecule: Cc1c(-c2cc(F)cc(CNC(=O)c3ncnc4nc(C5CCCC5)[nH]c34)c2)cnn1-c1ccc(F)cc1
DC50: 100 to 1000 nM

molecule: O=C(Nc1cc(F)cc(-c2cnn(-c3ccc(F)cc3)c2)c1)c1ncnc2nc(C3CCCC3)[nH]c12
DC50: > 10000 nM

molecule: O=C(NCc1cc(F)cc(N2CCCN(c3ccc(F)cc3)CC2)c1)c1ncnc2nc(C3CCCC3)[nH]c12
DC50: 100 to 1000 nM

molecule: O=C(NCc1cc(F)cc(-c2cnn(-c3ccc(Cl)cc3)c2)c1)c1ncnc2nc(C3CCCC3)[nH]c12
DC50: < 100 nM

molecule: [2H]C1([2H])C(c2nc3ncnc(C(=O)NCc4cc(F)cc(-c5cnn(-c6ccc(F)cc6)c5)c4)c3[nH]2)C([2H])([2H])C([2H])([2H])C1([2H])[2H]
DC50: < 100 nM

molecule: O=C(NCc1cc(F)cc(N2CCN(c3ccc(F)cc3)CC2)c1)c1ncnc2nc(C3CCCC3)[nH]c12
DC50: 1000 to 10000 nM

molecule: O=C(NCc1ccc(F)c(-c2cnn(-c3ccc(F)cc3)c2)c1)c1ncnc2nc(C3CCCC3)[nH]c12
DC50: 100 to 1000 nM

molecule: CS(=O)(=O)c1cccc(-n2cc(-c3cc(F)cc(CNC(=O)c4ncnc5nc(C6CCCC6)[nH]c45)c3)cn2)c1
DC50: < 100 nM

molecule: CN(Cc1cc(F)cc(-c2cnn(-c3ccc(F)cc3)c2)c1)C(=O)c1ncnc2nc(C3CCCC3)[nH]c12
DC50: > 10000 nM

molecule: O=C(NCc1cc(F)cc(-c2cnn(-c3ccc(F)cc3)c2)c1)c1ncnc2nc(C3CCC(F)C3)[nH]c12 (single isomer, unassigned) [110(A)]
DC50: < 100 nM

Qu. // query DC50 value for entry O=C(NCc1cc(F)cc(-c2cnn(-c3ccc(F)c(Cl)c3)c2)c1)c1ncnc2nc(C3CCCC3)[nH]c12
Ans. < 100 nM

Qu. Suppose we examine the molecule O=C(NCc1cc(F)cc(-c2cnn(-c3ccc(F)cc3)c2)c1)c1ncnc2nc(C34CC(F)(C3)C4)[nH]c12 ; what DC50 value has been reported?
Ans. 100 to 1000 nM

Qu. Entry Cn1ccc(Nc2cc(F)cc(CNC(=O)c3ncnc4nc(C5CCCC5)[nH]c34)c2)n1 has what DC50?
Ans. < 100 nM

Qu. Any idea what DC50 was measured for O=C(NCc1cc(F)cc(-c2cnn(-c3ccc(F)cc3)c2)c1)c1ncnc2nc(C3CC4(CCC4)C3)[nH]c12 ?
Ans. 1000 to 10000 nM

Qu. Bench note: what DC50 did CC(=O)c1ccc(-n2cc(-c3cc(F)cc(CNC(=O)c4ncnc5nc(C6CCCC6)[nH]c45)c3)cn2)cc1 show?
Ans. < 100 nM

Qu. Please look up its DC50: CCOC(=O)c1ccc(Nc2cc(F)cc(CNC(=O)c3ncnc4nc(C5CCCC5)[nH]c34)c2)cc1
Ans. 100 to 1000 nM

Qu. Please report the recorded DC50 for O=C(NCc1cc(F)cc(-c2cnn(-c3ccc(F)cc3)c2)c1)c1ncnc2nc(C34CCC(C3)C4)[nH]c12 .
Ans. 100 to 1000 nM

Qu. Find the recorded DC50 belonging to O=C(NCc1cc(F)cc(-c2cnn(-c3cccc(F)c3)c2)c1)c1ncnc2nc(C3CCC(F)(F)C3)[nH]c12 (stereo not shown) and report it.
Ans. < 100 nM

Qu. Fill in the blank: the reported DC50 of O=C(NCc1cc(F)cc(-c2cnn(-c3ccc(F)cc3)c2)c1)c1ncnc2nc(C34CC(C3)C4)[nH]c12 is ____.
Ans. 1000 to 10000 nM

Qu. Please report the recorded DC50 for O=C(NCc1cc(F)cc(-c2cnn(-c3ccc(F)nc3)c2)c1)c1ncnc2nc(C3CCC(F)(F)C3)[nH]c12 (stereo not shown) .
Ans. < 100 nM

Qu. What DC50 value was documented for this molecule, O=C(NCc1cc(F)cc(-c2cnn(-c3ccsc3)c2)c1)c1ncnc2nc(C3CCCC3)[nH]c12 ?
Ans. < 100 nM

Qu. Name the recorded DC50 for NC(=O)c1ccc(Nc2cc(F)cc(CNC(=O)c3ncnc4nc(C5CCCC5)[nH]c34)c2)cc1 .
Ans. < 100 nM

---

biological target: HIF-1α (Homo sapiens, UniProt Q16665); construct: endogenous in cells; host or cells: ARPE-19 (ATCC CRL-2302); test: Analysis of HIF-1α protein expression (Western blot) in ARPE-19 cells under mixed hypoxic condition; assay type: cell-based; conditions: values marked * in the table, mixed hypoxic condition (1% oxygen + CoCl2) for 24 hours, concentration range at which HIF-1α expression is reduced by 50% vs untreated control, read-out: IC50 HIF-1α, Hypoxia(24h)
Measured DC50 values are reported for all entries that follow.

compound: O=C(NCc1cc(F)cc(-c2ccsc2)c1)c1ncnc2nc(C3CCCC3)[nH]c12 [Example 40]
val: < 100 nM

Qu. # query: DC50 of entry O=C(NCc1cc(F)cc(-c2cnn(-c3ccc(F)cc3)c2)c1)c1ncnc2nc(C3CCOC3)[nH]c12 (stereo not shown) [Example 89]
Ans. 100 to 1000 nM

Qu. # DC50 lookup, item O=C(NCc1cc(F)cc(-c2cnn(-c3ccc(F)cc3)c2)c1)c1ncnc2nc(C3CC(F)C3)[nH]c12 (single isomer, unassigned) [102(A)]
Ans. 1000 to 10000 nM

Qu. May I ask what DC50 has been recorded for C[C@@H](NC(=O)c1ncnc2nc(C3CCCC3)[nH]c12)c1cccc(-c2cnn(-c3ccc(F)cc3)c2)c1 [Example 90] ?
Ans. 100 to 1000 nM

---

# maps each entry to its DC50
Target: HIF-1α (Homo sapiens, UniProt Q16665)
Construct: endogenous in cells; host or cells: ARPE-19 (ATCC CRL-2302)
Experiment: Analysis of HIF-1α protein expression (Western blot) in ARPE-19 cells under mixed hypoxic condition
Format: cell-based
Conditions: mixed hypoxic condition (1% oxygen + CoCl2) for 1 hour, concentration range at which HIF-1α expression is reduced by 50% vs untreated control, read-out: IC50 HIF-1α Hypoxia (1 hour)
Description: ARPE-19 cells (Human retinal pigment epithelial cells, ATCC CRL-2302) were cultured in DMEM/F12 (LM002-08, Welgene) medium containing 10% fetal bovine serum (FBS, 16000-044, Gibco) in an incubator at 37°C with 5% carbon dioxide. When the cells grew sufficiently, they were cultured in experimental culture dishes for protein isolation and medium supernatant acquisition. Cells were detached from the culture dish using TrypLE™ Express (Gibco). […] The cells were counted and seeded into new culture dishes. […]

Worked examples, 2 compounds total:
smiles: N#Cc1cccc(-n2cc(-c3cc(F)cc(CNC(=O)c4ncnc5nc(C6CCCC6)[nH]c45)c3)cn2)c1
val: < 100 nM

smiles: CN1CCC[C@H]1c1nc2ncnc(C(=O)NCc3cc(F)cc(-c4cnn(C)c4)c3)c2[nH]1
val: 100 to 1000 nM

Continue with the compound presented below.
Qu. I have this compound here, O=C(NCc1cc(F)cc(-c2cnn(-c3ccc(C(F)(F)F)cc3)c2)c1)c1ncnc2nc(C3CCCC3)[nH]c12 , and I need its recorded DC50.
Ans. < 100 nM
